Test system: PSMA + PC-3 PiP and PSMA − PC-3 flu tumor xenografts
Conditions: PSMA+ tumor xenograft, 1 H post-injection
Experimental endpoint: Biodistribution: PC-3 PiP

Compound	Assayed system	Readout value
N=C(N)NCc1ccc(C(=O)NCCCCC(NC(=O)CCCCCCC(=O)NCCCC[C@H](NC(=O)N[C@@H](CCC(=O)O)C(=O)O)C(=O)O)C(=O)O)cc1[131I] (stereo partly shown) [[^131I] labeled PSMA-904]	PSMA + PC-3 PiP and PSMA − PC-3 flu tumor xenografts	27.6 ± 7.59 % ID/g
O=C(O)CC[C@H](NC(=O)N[C@@H](CCC(=O)NCCc1ccc([131I])cc1)C(=O)O)C(=O)O [[^131I]HS-549]	PSMA + PC-3 PiP and PSMA − PC-3 flu tumor xenografts	78.1 ± 19.1 % ID/g
O=C(O)CC[C@H](NC(=O)N[C@@H](CCCCNC(=O)c1ccc([131I])cc1)C(=O)O)C(=O)O [[^131I]YC-I-27]	PSMA + PC-3 PiP and PSMA − PC-3 flu tumor xenografts	13.1 ± 5.55 % ID/g
N=C(N)NCc1ccc(C(=O)NCCCC[C@H](NC(=O)N[C@@H](CCC(=O)O)C(=O)O)C(=O)O)cc1[131I] [[^131I] labeled 7 (PSMA-620)]	PSMA + PC-3 PiP and PSMA − PC-3 flu tumor xenografts	16.5 ± 4.78 % ID/g
O=C(O)CC[C@H](NC(=O)NC(CCCCNC(=O)c1ccc([211At])cc1)C(=O)O)C(=O)O (stereo partly shown) [[^211At]YC-I-27]	PSMA + PC-3 PiP and PSMA − PC-3 flu tumor xenografts	17.9 ± 2.98 % ID/g
N=C(N)NCc1ccc(C(=O)NCCCCC(NC(=O)CCCCCCC(=O)NCCCC[C@H](NC(=O)N[C@@H](CCC(=O)O)C(=O)O)C(=O)O)C(=O)O)cc1[211At] (stereo partly shown) [[^211At] labeled PSMA-904]	PSMA + PC-3 PiP and PSMA − PC-3 flu tumor xenografts	22.7 ± 5.42 % ID/g
O=C(O)CC[C@H](NC(=O)N[C@@H](CCC(=O)NCCc1ccc([211At])cc1)C(=O)O)C(=O)O [[^211At]HS-549]	PSMA + PC-3 PiP and PSMA − PC-3 flu tumor xenografts	43.25 ± 9.81 % ID/g
